Each recorded value in this set is attributed to ChEMBL document CHEMBL1961873.

Catalogue of compounds with associated inhibition
# Target System: Serine/threonine-protein kinase Chk2 (Homo sapiens);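 note: reported value is the mean inhibition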
# Applied Conditions: at 1 µM
Just the number please, in %, no unit attached.

compound=Oc1cccc(-c2nc(-c3ccccc3)[nH]c2-c2ccncc2)c1 uom=% result_number=1.68

Request: Consider the compound O=C(Nc1ccc(Oc2ccc3[nH]c(NC(=O)c4ccco4)nc3c2)cc1)Nc1cc(C(F)(F)F)ccc1F . State its measured inhibition.
Response: 4.39

Request: Report inhibition for Nc1nccc(-c2c(-c3ccc(F)cc3)nn3cc(C(F)(F)F)ccc23)n1
Response: -0.27

Request: Name the recorded inhibition of the item Cc1ccc2c(-c3ccnc(Nc4ccc5c(c4)OCCO5)n3)c(-c3ccc(C(F)(F)F)cc3)nn2n1 in your answer.
Response: -0.6

* * *

# Target System: Casein kinase I isoform gamma-2 (Homo sapiens) (UniProt P78368)
# Sequence (P78368 whole entry, looked up, canonical isoform): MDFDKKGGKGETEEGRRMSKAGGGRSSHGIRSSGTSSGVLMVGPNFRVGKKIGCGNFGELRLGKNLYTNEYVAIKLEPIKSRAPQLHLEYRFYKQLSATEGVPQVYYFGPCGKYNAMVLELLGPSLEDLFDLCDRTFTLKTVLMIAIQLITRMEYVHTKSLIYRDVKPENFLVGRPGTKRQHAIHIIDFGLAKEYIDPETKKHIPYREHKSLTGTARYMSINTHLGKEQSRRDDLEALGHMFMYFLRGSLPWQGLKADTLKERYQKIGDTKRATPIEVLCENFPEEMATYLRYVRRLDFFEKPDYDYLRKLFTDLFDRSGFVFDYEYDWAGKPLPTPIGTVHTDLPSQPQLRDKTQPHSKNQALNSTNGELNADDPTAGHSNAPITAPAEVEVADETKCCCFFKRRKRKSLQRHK
# Applied Conditions: at 1 µM
# Description: GSK_PKIS: CK1-g2 mean inhibition at 1 uM [Nanosyn]
Value Type: inhibition (%)
Provide only the numeric value, understood in %.

Request: Supply inhibition value. Item: CC(C)c1ccc2c(c1)NC(=O)/C2=N/Nc1ccc(S(N)(=O)=O)cc1
Response: 0.09

Request: Please give measured inhibition of the following entry: Cc1ccc(C(=O)NC2CC2)cc1-c1ccc2[nH]ncc2c1
Response: -3.39

Request: Provide only the value of recorded inhibition for NS(=O)(=O)c1ccc(NC=C2C(=O)Nc3ccc4ncsc4c32)cc1
Response: 19.5

Request: Please look at this molecule and report its inhibition: NC(=O)c1cccc(Nc2nccc(Nc3cccc(F)c3)n2)c1
Response: 1.73

* * *

# Target System: Vascular endothelial growth factor receptor 3 (Homo sapiens);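 note: mean FLT4 inhibition, averaged across replicates, from the GSK PKIS kinase inhibitor screen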
# Applied Conditions: at 1 µM
Value Type: inhibition

Request: Specify inhibition for CN(C)c1cc2c(Nc3ccc4c(cnn4Cc4ccccc4)c3)ncnc2cn1 and stop.
Response: 2.4%

Request: Specify inhibition for COc1cc2ncn(-c3cc(OCc4ccccc4S(C)(=O)=O)c(C#N)s3)c2cc1OC and stop.
Response: 73.4%

* * *

# Target System: Protein kinase C gamma type (Homo sapiens) (UniProt P05129);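 note: values are mean percent inhibition of PKC gamma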
# Applied Conditions: at 0.1 µM
Value Type: inhibition (%)
Just the number in %, nothing appended.

Sample records with inhibition:
compound=COC(=O)c1cncc(/C=C/c2c(C)cc(O)cc2C)c1 value_type=inhibition uom=% result_number=6.64
compound=Nc1nccc(-c2c(-c3ccc(F)cc3)ncn2CCCN2CCOCC2)n1 value_type=inhibition uom=% result_number=3.25
compound=CS(=O)(=O)Nc1cccc(-c2ccc3c(NC(=O)C4CC4)n[nH]c3c2)c1 value_type=inhibition uom=% result_number=1.6

Request: Please report the measured inhibition for COc1cc2ncnc(Nc3ccc(C)c(O)c3)c2cc1OC
Response: 2.11

Request: Fill in reported inhibition for this entry: NS(=O)(=O)c1ccc(N/N=C2\C(=O)Nc3ccc(Cl)cc32)cc1
Response: -1.84

Request: Give inhibition for CCCN1CCCC(c2ccc(Nc3nc(Nc4cc(F)ccc4C(N)=O)c4cc[nH]c4n3)c(OC)c2)C1 (configuration not stated)
Response: 5.05

* * *

# Target System: Tyrosine-protein kinase TXK (Homo sapiens) (UniProt P42681);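 note: value given is the mean percent inhibition of TXK kinase activity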
# Sequence (P42681 whole entry): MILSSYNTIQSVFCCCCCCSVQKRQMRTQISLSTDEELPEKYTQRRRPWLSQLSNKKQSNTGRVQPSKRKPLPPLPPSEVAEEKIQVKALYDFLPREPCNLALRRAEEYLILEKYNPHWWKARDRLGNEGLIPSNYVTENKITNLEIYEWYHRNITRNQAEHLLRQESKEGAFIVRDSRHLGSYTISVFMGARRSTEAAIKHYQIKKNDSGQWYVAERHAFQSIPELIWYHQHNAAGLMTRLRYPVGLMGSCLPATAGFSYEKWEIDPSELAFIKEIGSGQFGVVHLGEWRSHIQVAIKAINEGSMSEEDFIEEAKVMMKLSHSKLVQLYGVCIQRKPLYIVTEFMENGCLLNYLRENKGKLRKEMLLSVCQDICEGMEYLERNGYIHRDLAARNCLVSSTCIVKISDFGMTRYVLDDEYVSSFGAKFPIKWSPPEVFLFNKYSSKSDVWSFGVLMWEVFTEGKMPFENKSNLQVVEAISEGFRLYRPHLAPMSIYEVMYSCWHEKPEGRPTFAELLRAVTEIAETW
# Applied Conditions: at 1 µM
Classes are defined on inhibition with ranges lo = under 3%, mid = from 3% up to 9%, hi = 9% and over

Past entries and their recorded results:
compound=Oc1cccc(-c2nc(-c3ccccc3)[nH]c2-c2ccncc2)c1 class=hi
compound=COc1cc2ncnc(Nc3ccc(C)c(O)c3)c2cc1OC class=hi
compound=CN(c1ccc(NC(=O)Nc2ccc(OC(F)(F)F)cc2)cc1)c1ccnc(Nc2cccc(S(N)(=O)=O)c2)n1 class=mid
compound=Nc1nccc(-c2c(-c3ccc(F)cc3)ncn2CCCN2CCOCC2)n1 class=mid
compound=O=C1Nc2ccc(-c3cccnc3)cc2C1=Cc1cc(Br)c(O)c(Br)c1 class=mid

Request: Entry Nc1nccc(-c2c(-c3ccc(F)cc3)nn3cc(C(F)(F)F)ccc23)n1 belongs to which category?
Response: mid

Request: Assign a bin to NS(=O)(=O)c1ccc(-c2cc3ccncc3cc2OCc2ccccc2)cc1
Response: lo

Request: Which class is correct for the following molecule? Cc1ccc2c(c1)/C(=N/Nc1ccc(S(N)(=O)=O)cc1)C(=O)N2
Response: mid

Request: Which bin should I file CS(=O)(=O)Nc1cccc(-c2ccc3c(NC(=O)C4CC4)n[nH]c3c2)c1 under?
Response: lo

Request: Quick check: band for Nc1nccc(C#Cc2cncnc2Nc2ccc(OCc3cccc(F)c3)c(Cl)c2)n1
Response: mid

Request: Tag the class for c1ccc(Nc2ncc(-c3ccccc3)o2)cc1
Response: mid
